Just for reference, a melting point compilation (Tetko et al.; mined from patent text by program, amines drawn as free bases though some values may be those of a salt) is where these values come from.

measurement_type: melting point

Let me know recorded melting point for O=C1c2ccccc2-c2ccccc2C1(O)C(F)(F)F (stereo not drawn) , thanks.
148 to 151 °C

Let me know recorded melting point for COc1ccc2c(C)c(CCN3CCN(c4ccccc4OC)CC3)c(=O)oc2c1 , thanks.
129 to 130 °C

Let me know recorded melting point for CCOC(=O)CC(=O)c1cc(F)c(S(=O)(=O)CC)nc1Nc1ccc(F)cc1F , thanks.
113 to 114 °C

Let me know recorded melting point for COc1cccc(OC)c1C(=O)Nc1ccc(OCCN2CCCCC2)cc1 , thanks.
114 to 118 °C

Let me know recorded melting point for Oc1ccc(-c2ncc3ncc(-c4ccc(S)cc4)cc3n2)cc1 , thanks.
222 to 223 °C

Let me know recorded melting point for Cc1ccc2c(c1)c(C)c1n2C(=O)C(Cc2nc[nH]c2C)CC1 (stereo not drawn) , thanks.
255 to 258 °C

Let me know recorded melting point for CC(C)(C)NC(=O)c1ccccc1C(c1ccc(O)cc1)c1ccc(O)cc1 , thanks.
264 to 266 °C

Let me know recorded melting point for COc1ccc(Sc2ccccc2CC(=O)O)cc1 , thanks.
102 to 105 °C

Let me know recorded melting point for CS(=O)(=O)c1c(N)nc(N)nc1Cl , thanks.
256 to 258 °C

Let me know recorded melting point for Cc1cc(Cl)cc(C)c1NC(=O)Oc1ccccc1 , thanks.
158 to 160 °C

Let me know recorded melting point for N#Cc1ccc(Cl)cc1OC[C@@H]1CO1 , thanks.
85 to 86 °C

Let me know recorded melting point for CC(Sc1nc(N)cc(C(F)(F)F)n1)c1cc2ccoc2cn1 (stereo not drawn) , thanks.
180 to 182 °C

Let me know recorded melting point for CC(=O)OC1CSC(Oc2cccc(C(C)=O)c2)C(OC(C)=O)C1OC(C)=O (stereo not drawn) , thanks.
150 to 153 °C

Let me know recorded melting point for COCCOc1ccc(/C=C/C(=O)NS(=O)(=O)CC(F)(F)F)c(Oc2ncc(C(F)(F)F)cc2Cl)c1 , thanks.
146 to 148 °C

Let me know recorded melting point for CC(C)(C)OC(=O)N1C2CCC(C2)N1CC(O)C(Cc1ccccc1)NC(=O)OCc1ccccc1 (mixture of isomers) , thanks.
119 to 126 °C

Let me know recorded melting point for COc1ccc(Nc2cccc(Cl)c2N)cc1 , thanks.
65 to 66 °C

Let me know recorded melting point for CCc1ccc(C=O)nc1 , thanks.
138 to 140 °C

Let me know recorded melting point for NCCCN1CC=C(c2ccc(Cl)cc2)CC1 , thanks.
57 to 58 °C

Let me know recorded melting point for CC(C)(C)OC(=O)N1C[C@@H](CC(=O)COCC[Si](C)(C)C)[C@H]2NC(=O)[C@H]21 , thanks.
89 to 91 °C

Let me know recorded melting point for CC(C)(C)OC(=O)Nc1ccc(C(=O)O)cc1C(F)(F)F , thanks.
197 to 198 °C

Let me know recorded melting point for CC(C)c1ccccc1N=C1NCCS1 , thanks.
76 to 77 °C

Let me know recorded melting point for Cc1noc(C)c1-c1nn(Cc2ccccc2)c(=O)c2ccccc12 , thanks.
186 to 188 °C

Let me know recorded melting point for CNc1nc(-c2cccc(NC(=O)c3cccnc3)c2)c2cc(OC)c(OC)cc2n1 , thanks.
251 to 253 °C

Let me know recorded melting point for COc1ccc(Br)c(C(Cl)=NNS(=O)(=O)c2ccccc2)c1 , thanks.
104 to 106 °C

Let me know recorded melting point for O=Cc1ccc(Cl)c(OCCCC(=O)N(CCO)CCCCC2CCCC2)c1[N+](=O)[O-] , thanks.
107 to 108 °C

Let me know recorded melting point for Cn1c(=O)c2ccccc2n(CCCBr)c1=O , thanks.
90 to 96 °C

Let me know recorded melting point for COc1ccc(-c2ccc(C(=O)O)cn2)cc1 , thanks.
252 to 253 °C

Let me know recorded melting point for CCCCCCc1cc(SC)ccc1OC(=O)c1ccccc1 , thanks.
57 to 58 °C

Let me know recorded melting point for CC#CC(C)(C)NC(=O)C(CC)Oc1cncc(Br)c1 (single isomer, unassigned; (-)) , thanks.
95 to 97 °C

Let me know recorded melting point for CCOC(=O)C=Cc1cc(C=CS(=O)(=O)c2ccccc2)cc(Cc2cccnc2)c1 , thanks.
118 to 120 °C

Let me know recorded melting point for CC(=O)Oc1ccc2nc(C(N)=O)nc(O)c2c1 , thanks.
250 °C

Let me know recorded melting point for CC(C)=C1OC(=O)N(c2ccc(Cl)cc2)C1=O , thanks.
135 to 136 °C

Let me know recorded melting point for Fc1ccc(OC2CCN(CCc3c[nH]c4ccccc34)CC2)cc1 , thanks.
109 to 111 °C
